Reference source for all entries: patent US20260325540A1

# target: SARS-CoV-2 3CLpro (Severe acute respiratory syndrome coronavirus 2, UniProt P0DTD1)
# test-method-notes: FRET based protease assay, SARS-CoV-2 3CL
pIC50: −log10 of the molar value.
Field: pIC50. Provide a value for each of the molecules that follow.

Could I get pIC50 for every one of these entries?
1. CC(C)(C)OC(=O)N[C@H]1CCCC[C@H]2CNC(=O)[C@H]2C[C@@H](C#N)NC(=O)[C@H]2N(CC(F)(F)C2(C)C)C1=O
2. CC(C)(C)OC(=O)N[C@H]1CCCC[C@H]2CNC(=O)[C@H]2C[C@@H](C#N)NC(=O)[C@@H]2[C@H]3CCC[C@H]3CN2C1=O
3. CC1(C)[C@@H]2[C@H]3C(=O)N[C@H](C#N)C[C@@H]4C(=O)NC[C@@H]4CCCC[C@H](NC(=O)CC4CCCC4)C(=O)N3C[C@@H]21

1. 6.00 to 7.00
2. > 7.00
3. > 7.00
